Data provenance is ChEMBL document CHEMBL4673352.

Entries and their hepatocyte CLint values follow.
# experimental details: Intrinsic clearance in human cryopreserved hepatocytes assessed per million cells […]
# Format: ADME, cell-based, Hepatocyte
# condition notes: read-out: CLH
Respond with the bare value in µL/min/1e6 cells.

Worked examples, 4 molecules total:
>>> test_result("CC(=O)N[C@@H]1CCC[C@H](C(=O)Nc2cc(-c3cnn4c3CC(C)(C)C4)c(F)cn2)C1")
2.6
>>> test_result("CC(=O)N[C@@H]1CCC[C@H](C(=O)Nc2cc(-c3cn[nH]c3CCCCO)c(Cl)cn2)C1")
2.9
>>> test_result("CC(=O)N[C@@H]1CCC[C@H](C(=O)Nc2cc(-c3cnc4n3CC(C)(C)C4)c(Cl)cn2)C1")
2.5
>>> test_result("CC(=O)N[C@@H]1CCC[C@H](C(=O)Nc2cc(-c3cnn4c3CC(C)(C)CC4)c(F)cn2)C1")
23

Now look at this one.
# input I am curious: what hepatocyte CLint value has been reported for CC(=O)N[C@@H]1CCC[C@H](C(=O)Nc2cc(-c3cnn4c3CC(C)(C)CC4)ccn2)C1 ?
# output 4.3

###

# experimental details: Clearance in cynomolgus monkey plasma at 0.46 umol/kg, iv administered over 0.25 hrs formulated as solution in DMA/PEG400/Tween80
# Type: ADME, organism-based, Macaca fascicularis
# condition notes: dose 0.46 µmol/kg
recorded endpoint: clearance (mL/min/kg)
Unit mL/min/kg implied. Number only.

# input Fill blank: measured clearance of the compound CC(=O)N[C@@H]1CCC[C@H](C(=O)Nc2cc(-c3cnn4c3CC(C)(C)C4)c(Cl)cn2)C1 is ____.
# output 19

###

# experimental details: Volume of distribution at steady state in cynomolgus monkey at 0.46 umol/kg, iv administered over 0.25 hrs formulated as solution in DMA/PEG400/Tween80
# Assay type: ADME, organism-based, Macaca fascicularis
# condition notes: in vivo, dose 0.46 µmol/kg, read-out: Vdss
recorded endpoint: Vd (L/kg)
Dear colleague, please return just the value in L/kg, with no unit written.

# input If you can, please state the reported Vd value of CC(=O)N[C@@H]1CCC[C@H](C(=O)Nc2cc(-c3cnn4c3CC(C)(C)C4)c(Cl)cn2)C1 .
# output 1.3

###

# experimental details: Clearance in mouse plasma at 5.2 umol/kg, iv formulated as solution
# Type: ADME, organism-based
# condition notes: dose 5.2 µmol/kg
recorded endpoint: clearance (mL/min/kg)
Express it in mL/min/kg; write the number only.

# input Consider the compound COc1cc(F)ccc1-c1ccnc(NC(=O)[C@H]2CCC[C@@H](NC(C)=O)C2)c1 and give its measured clearance.
# output 40

###

# experimental details: Clearance in Han Wistar rat plasma at […], iv formulated as solution
# Format: ADME, organism-based
# condition notes: dose 1.3 µmol/kg
recorded endpoint: clearance (mL/min/kg)
API: value field is a number in mL/min/kg; no unit string.

# input Would you mind telling me what clearance value was observed for COc1cc(F)ccc1-c1ccnc(NC(=O)[C@H]2CCC[C@@H](NC(C)=O)C2)c1 ?
# output 77

###

# experimental details: Clearance in Beagle dog plasma at 5.2 umol/kg, iv administered over 0.25 hrs formulated as solution in 5% DMSO
# Assay type: ADME, organism-based, Canis lupus familiaris
# condition notes: dose 5.2 µmol/kg
recorded endpoint: clearance (mL/min/kg)
Your answer should be a plain number; it is taken to be in mL/min/kg.

# input Could you share which clearance value was measured for CC(=O)N[C@@H]1CCC[C@H](C(=O)Nc2cc(-c3cnn4c3CCCC4)c(Cl)cn2)C1 ?
# output 30
